// reported Ki for each item listed
molecular target: Bcl-xL (Homo sapiens, UniProt Q07817); assay: Time Resolved-Fluorescence Resonance Energy Transfer (TR-FRET) binding assay, competition with probe F-Bak; details: without HS; read-out: Bcl-xL Binding Ki
Sequence (Q07817 whole entry): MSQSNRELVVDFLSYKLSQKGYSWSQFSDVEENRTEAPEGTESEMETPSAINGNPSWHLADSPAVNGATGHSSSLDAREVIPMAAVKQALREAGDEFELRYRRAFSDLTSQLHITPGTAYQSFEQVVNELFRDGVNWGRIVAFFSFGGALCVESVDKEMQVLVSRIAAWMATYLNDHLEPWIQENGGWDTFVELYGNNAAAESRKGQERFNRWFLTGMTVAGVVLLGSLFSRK

# example entries with known answers
[[record]]
molecule = "Cc1c(-c2ccc(N3CCc4cccc(C(=O)Nc5nc6ccccc6s5)c4C3)nc2C(=O)O)cnn1CC12CC3(C)CC(C)(C1)CC(OCCNCCCC(=O)O)(C3)C2 [Example 1.56]"
measurement_kind = "Ki"
value_measured = "< 1 pM"

[[record]]
molecule = "Cc1c(-c2ccc(-c3ccc4cncc(C(=O)Nc5nc6ccccc6s5)c4c3)nc2C(=O)O)cnn1CC12CC3(C)CC(C)(C1)CC(OCCNCCS(=O)(=O)O)(C3)C2 [Example 1.78]"
measurement_kind = "Ki"
value_measured = "< 10 pM"


Now let's try a different one.
Incoming: Which Ki value belongs to CNCCOC12CC3(C)CC(C)(CC(Cn4ncc(-c5ccc(N6CCc7c(OCCCS(=O)(=O)O)ccc(C(=O)Nc8nc9ccccc9s8)c7C6)nc5C(=O)O)c4C)(C3)C1)C2 [Example 1.52] ?
Outgoing: < 1 pM
